MEASURED ON: UniProt:O43924
ASSAY INFO: Fluorescence polarization competition binding assay (displacement titration of labeled Atorvastatin-probe)
RECORDED CONDITIONS: fluorescence polarization assay, displacement of fluorescent-tagged Atorvastatin analog from PDEδ; read-out: KD
pKd: −log10 of the molar value.
PROPERTY NAME: pKd

Field: example entries. Status: answers known.
Cc1ccc(-n2nc3c(=O)n(CCCC(=O)NCc4cccnc4)nc(C)c3c2C)cc1
6.00 to 7.00
Cc1ccc(-n2nc3c(=O)n(CCCC(=O)NCc4ccc(OC(C)C)cc4)nc(C)c3c2C)cc1
> 7.52

# return pKd for each item in the list
1. Cc1c2cnn(-c3ccccc3)c(=O)c2c(C)n1CCCC(=O)NCc1ccccc1Cl
2. Cc1c2cnn(-c3ccccc3)c(=O)c2c(C)n1CCCC(=O)NC1CCC(C)CC1 (stereo not drawn)
3. Cc1c2cnn(-c3ccccc3)c(=O)c2c(C)n1CCCC(=O)NC1CCCCC1
4. Cc1c2cnn(-c3ccccc3)c(=O)c2c(C)n1CCCC(=O)NC1CCCCC1C (stereo not drawn)
5. Cc1c2cnn(-c3ccccc3)c(=O)c2c(C)n1CCCc1nc(-c2ccc(C(F)(F)F)cc2)no1
6. Cc1ccc(-n2nc3c(=O)n(CCCC(=O)NCCc4ccccc4)nc(C)c3c2C)cc1
7. Cc1nn(CCCC(=O)NCc2ccccc2)c(=O)c2nn(-c3ccccc3)c(C)c12

1: > 7.52; 2: > 7.52; 3: > 7.52; 4: > 7.52; 5: < 6.00; 6: > 7.52; 7: 7.00 to 7.52

Each compound below has a recorded value; state its pKd.
1. COc1ccc(-c2noc(CCCn3c(C)c4cnn(-c5ccccc5)c(=O)c4c3C)n2)cc1
2. Cc1c2cnn(-c3ccccc3)c(=O)c2c(C)n1CCCC(=O)NCc1ccc(Cl)cc1
3. Cc1ccc(-n2nc3c(=O)n(CCCC(=O)NC4CC4)nc(C)c3c2C)cc1
4. Cc1ccc(-n2nc3c(=O)n(CCCC(=O)NC4CCCC4)nc(C)c3c2C)cc1
5. Cc1nn(CCCC(=O)NCc2ccco2)c(=O)c2nn(-c3ccccc3)c(C)c12
6. Cc1ccc(CCNC(=O)CCCn2nc(C)c3c(C)n(-c4ccccc4)nc3c2=O)cc1
7. Cc1c2cnn(-c3ccccc3)c(=O)c2c(C)n1CCCc1nnc(-c2ccc(C(F)(F)F)cc2)o1
8. COc1ccc(OC)c(-c2noc(CCCn3c(C)c4cnn(-c5ccccc5)c(=O)c4c3C)n2)c1

1: < 6.00; 2: 7.00 to 7.52; 3: 6.00 to 7.00; 4: > 7.52; 5: 7.00 to 7.52; 6: > 7.52; 7: 6.00 to 7.00; 8: < 6.00

List pKd for every entry below, keeping the order given.
1. Cc1c2cnn(-c3ccccc3)c(=O)c2c(C)n1CCCc1nc2ccccc2n1Cc1ccccc1
2. Cc1c2cnn(-c3ccccc3)c(=O)c2c(C)n1CCCC(=O)NCc1ccccn1
3. COc1ccccc1CNC(=O)CCCn1nc(C)c2c(C)n(-c3ccccc3)nc2c1=O
4. COc1cccc(CNC(=O)CCCn2c(C)c3cnn(-c4ccccc4)c(=O)c3c2C)c1

1: > 7.52; 2: 6.00 to 7.00; 3: 7.00 to 7.52; 4: 7.00 to 7.52

Could you report pKd for every entry in the following list?
1. Cc1ccc(-c2nnc(CCCn3c(C)c4cnn(-c5ccccc5)c(=O)c4c3C)o2)cc1
2. COc1ccc(-c2nnc(CCCn3c(C)c4cnn(-c5ccccc5)c(=O)c4c3C)o2)cc1
3. Cc1nn(CCCC(=O)NCCc2ccccc2)c(=O)c2nn(-c3ccccc3)c(C)c12
4. Cc1c2cnn(-c3ccccc3)c(=O)c2c(C)n1CCCC(=O)NCc1ccco1

["< 6.00", "< 6.00", "> 7.52", "6.00 to 7.00"]

Origin of measurements: patent EP2955182A1
